Assay: qHTS assay to identify small molecule antagonists of the thyroid receptor (TR) signaling pathway (AID 743065); further: nearly all actives have a fitted effect of over 55% in size
Conditions: GH3.TRE-Luc, T3-stimulated luciferase inhibition, 23.5 h; series mostly up to 70.3 µM
Results filed as inconclusive are left out. Active and inactive are the calls of the source. The call rests on the fitted dose curve; in most records, active means well fitted inhibition curve with a large enough effect in the repeat runs; inconclusive means weak or mixed curves; inactive means no such curve, though single readings can be large or run the other way.
Choose one outcome from this list and give only that: active, inactive

Check out these entries, answers already filled in.
[[record]]
compound = "C[C@@H](O[C@H]1OCCN(Cc2n[nH]c(=O)[nH]2)[C@H]1c1ccc(F)cc1)c1cc(C(F)(F)F)cc(C(F)(F)F)c1"
label_class = "active"

[[record]]
compound = "C=C(C)CCCC(C)CCO (stereo not drawn)"
label_class = "inactive"

[[record]]
compound = "O=c1[nH]c2ccc(Cl)cc2o1"
label_class = "inactive"

[[record]]
compound = "C1COC1"
label_class = "inactive"

[[record]]
compound = "CCC=CC#N"
label_class = "inactive"

[[record]]
compound = "COC(=O)C1=C(C)NC(C)=C(C(=O)O[C@@H]2CCCN(Cc3ccccc3)C2)[C@@H]1c1cccc([N+](=O)[O-])c1"
label_class = "active"


input: Can you look up the reported call for COc1ncnc(NS(=O)(=O)c2ccc(N)cc2)c1OC for me?
output: inactive

input: Per the records of this test, what outcome belongs to N#CCCN(CCO)CCO ?
output: inactive
